log10 of IC50 reference
# target or test system: Proto-oncogene tyrosine-protein kinase Src (Homo sapiens)
# Sequence (P12931 2-536 limits assumed): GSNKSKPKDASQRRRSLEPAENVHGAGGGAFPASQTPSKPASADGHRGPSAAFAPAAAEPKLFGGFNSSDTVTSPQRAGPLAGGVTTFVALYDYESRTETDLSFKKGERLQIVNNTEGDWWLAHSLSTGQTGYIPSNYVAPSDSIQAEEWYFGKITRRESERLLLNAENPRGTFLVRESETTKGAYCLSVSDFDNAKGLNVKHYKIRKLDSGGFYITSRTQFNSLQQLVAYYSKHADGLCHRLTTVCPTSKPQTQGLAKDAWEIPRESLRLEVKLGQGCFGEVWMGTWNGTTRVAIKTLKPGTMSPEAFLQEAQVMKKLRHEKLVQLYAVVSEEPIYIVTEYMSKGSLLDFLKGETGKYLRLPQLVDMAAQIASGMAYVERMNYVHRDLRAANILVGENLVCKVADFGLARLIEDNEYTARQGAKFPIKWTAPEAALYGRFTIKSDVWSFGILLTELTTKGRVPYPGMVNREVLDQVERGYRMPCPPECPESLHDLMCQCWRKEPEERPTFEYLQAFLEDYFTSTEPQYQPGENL
# assay remarks: Inhibitory activity against c-Src tyrosine kinase
// stored as log10 of IC50 expressed in µM

Reference set (5 entries):
record smiles | readout type | reported value
O=[N+]([O-])c1cccc(-c2[nH]nc3ncnc(Nc4cccc(Cl)c4)c23)c1 | log10 of IC50 | 0.99
Oc1cccc(-c2[nH]nc3ncnc(Nc4cccc(Cl)c4)c23)c1 | log10 of IC50 | -2.70
COc1cccc(Nc2[nH]nc3ncnc(Nc4cccc(Cl)c4)c23)c1 | log10 of IC50 | 0.89
Nc1nc(N)c2c(Nc3cccc(Cl)c3)[nH]nc2n1 | log10 of IC50 | 0.78
Clc1cccc(Nc2ncnc3n[nH]c(Nc4cccc(Cl)c4)c23)c1 | log10 of IC50 | 0.72

Suppose we examine the molecule `Clc1cccc(CNc2[nH]nc3ncnc(Nc4cccc(Cl)c4)c23)c1` ; what log10 of IC50 value has been reported?
0.32

* * *

# target or test system: Protein kinase C alpha type (Homo sapiens)
pIC50 reference
In plain terms, pIC50 is the concentration in mol/L turned into minus its base-10 logarithm.

Reference set (5 entries):
record smiles | reported value
Clc1cccc(Nc2[nH]nc3ncnc(NCc4ccccc4)c23)c1 | 5.35
Clc1cccc(Nc2ncnc3n[nH]c(Nc4cccc(Cl)c4)c23)c1 | 5.23
Nc1ccc(-c2[nH]nc3ncnc(Nc4cccc(Cl)c4)c23)cc1 | 5.44
Nc1nc(N)c2c(Nc3cccc(Cl)c3)[nH]nc2n1 | 4.62
Clc1cccc(Nc2[nH]nc3ncnc(Nc4cccc(Br)c4)c23)c1 | 5.42

Suppose we examine the compound `Nc1cccc(-c2[nH]nc3ncnc(Nc4cccc(Cl)c4)c23)c1` ; what pIC50 value has been reported?
5.82

Suppose we examine the compound `Cc1cccc(Nc2ncnc3[nH]nc(Nc4cccc(Cl)c4)c23)c1` ; what pIC50 value has been reported?
5.33

* * *

Below are IC50 values recorded for Tyrosine-protein kinase ABL1 (Homo sapiens).
Hi! Could you send only the number? It should be in nM, unit omitted.

Suppose we examine the compound `c1ccc(Nc2ncnc3n[nH]c(Nc4ccccc4)c23)cc1` ; what IC50 value has been reported?
1960

Suppose we examine the compound `Clc1cccc(Nc2[nH]cnc3nnc(-c4ccccc4)c2-3)c1` ; what IC50 value has been reported?
3760

Suppose we examine the compound `Cc1cccc(Nc2ncnc3[nH]nc(Nc4cccc(Cl)c4)c23)c1` ; what IC50 value has been reported?
1650

Suppose we examine the compound `Oc1cccc(Nc2[nH]nc3ncnc(Nc4cccc(Cl)c4)c23)c1` ; what IC50 value has been reported?
260

Suppose we examine the compound `Oc1cccc(-c2[nH]nc3ncnc(Nc4cccc(Cl)c4)c23)c1` ; what IC50 value has been reported?
180

* * *

# target or test system: Protein kinase C alpha type (Homo sapiens, UniProt P17252)
# assay remarks: Inhibitory activity against protein kinase C alpha […] kinase.
pIC50: −log10 of the molar value.
pIC50 reference

Suppose we examine the compound `Nc1ncnc2c1c(-c1ccccc1)nn2-c1ccccc1` ; what pIC50 value has been reported?
< 4.00

Suppose we examine the compound `Oc1cccc(Nc2[nH]nc3ncnc(Nc4cccc(Cl)c4)c23)c1` ; what pIC50 value has been reported?
6.25

Suppose we examine the compound `Clc1cccc(Nc2[nH]cnc3nnc(-c4ccccc4)c2-3)c1` ; what pIC50 value has been reported?
< 5.00

Suppose we examine the compound `Nc1[nH]cnc2nnc(Nc3cccc(Cl)c3)c1-2` ; what pIC50 value has been reported?
4.62

Suppose we examine the compound `COc1cccc(CNc2[nH]nc3ncnc(Nc4cccc(Cl)c4)c23)c1` ; what pIC50 value has been reported?
< 4.00

Suppose we examine the compound `CN(C)c1ccc(Nc2[nH]nc3ncnc(Nc4cccc(Cl)c4)c23)cc1` ; what pIC50 value has been reported?
5.54

Suppose we examine the compound `Oc1ccc(Nc2[nH]nc3ncnc(Nc4cccc(Cl)c4)c23)cc1` ; what pIC50 value has been reported?
< 6.00

Suppose we examine the compound `COc1cc2ncnc(Nc3cccc(Br)c3)c2cc1OC` ; what pIC50 value has been reported?
< 4.00

Suppose we examine the compound `Nc1ccc(Nc2[nH]nc3ncnc(Nc4cccc(Cl)c4)c23)cc1` ; what pIC50 value has been reported?
< 6.00

Suppose we examine the compound `c1ccc(Nc2ncnc3n[nH]c(Nc4ccccc4)c23)cc1` ; what pIC50 value has been reported?
5.16

Suppose we examine the compound `COc1ccc(CNc2[nH]nc3ncnc(Nc4cccc(Cl)c4)c23)cc1` ; what pIC50 value has been reported?
< 4.00

* * *

Below are IC50 values recorded for Cyclin-dependent kinase 1 (Homo sapiens).
Hi! Could you send only the number? It should be in µM, unit omitted.

Reference set (3 entries):
record smiles | reported value
COc1ccc(CNc2[nH]nc3ncnc(Nc4cccc(Cl)c4)c23)cc1 | 5
Nc1ccc(-c2[nH]nc3ncnc(Nc4cccc(Cl)c4)c23)cc1 | 4.5
COc1ccc(Nc2[nH]nc3ncnc(Nc4cccc(Cl)c4)c23)cc1 | 5.8

Turning now to a further record.
What value of IC50 on Cyclin-dependent kinase 1 (Homo sapiens) does `CN(C)c1ccc(Nc2[nH]nc3ncnc(Nc4cccc(Cl)c4)c23)cc1` have?
0.35

* * *

# target or test system: Epidermal growth factor receptor (Homo sapiens)
# assay remarks: Inhibition of EGF-stimulated tyrosine phosphorylation in A431 cells.
readout type: pIC50
In plain terms, pIC50 is the concentration in mol/L turned into minus its base-10 logarithm.

Reference set (6 entries):
record smiles | readout type | reported value
COc1ccc(CNc2[nH]nc3ncnc(Nc4cccc(Cl)c4)c23)cc1 | pIC50 | 7.70
Clc1cccc(Nc2[nH]nc3ncnc(Nc4ccccc4)c23)c1 | pIC50 | 6.00
COc1cccc(Nc2[nH]nc3ncnc(Nc4cccc(Cl)c4)c23)c1 | pIC50 | 6.10
COc1ccc(-c2[nH]nc3ncnc(Nc4cccc(Cl)c4)c23)cc1 | pIC50 | 5.82
Oc1cccc(Nc2[nH]nc3ncnc(Nc4cccc(Cl)c4)c23)c1 | pIC50 | 8.40
Nc1[nH]cnc2nnc(Nc3cccc(Cl)c3)c1-2 | pIC50 | 4.46

Turning now to a further record.
Suppose we examine the compound `Oc1ccc(-c2[nH]nc3ncnc(Nc4cccc(Cl)c4)c23)cc1` ; what pIC50 value has been reported?
6.30

* * *

# target or test system: Epidermal growth factor receptor (Homo sapiens, UniProt P00533)
# Sequence (P00533 whole entry): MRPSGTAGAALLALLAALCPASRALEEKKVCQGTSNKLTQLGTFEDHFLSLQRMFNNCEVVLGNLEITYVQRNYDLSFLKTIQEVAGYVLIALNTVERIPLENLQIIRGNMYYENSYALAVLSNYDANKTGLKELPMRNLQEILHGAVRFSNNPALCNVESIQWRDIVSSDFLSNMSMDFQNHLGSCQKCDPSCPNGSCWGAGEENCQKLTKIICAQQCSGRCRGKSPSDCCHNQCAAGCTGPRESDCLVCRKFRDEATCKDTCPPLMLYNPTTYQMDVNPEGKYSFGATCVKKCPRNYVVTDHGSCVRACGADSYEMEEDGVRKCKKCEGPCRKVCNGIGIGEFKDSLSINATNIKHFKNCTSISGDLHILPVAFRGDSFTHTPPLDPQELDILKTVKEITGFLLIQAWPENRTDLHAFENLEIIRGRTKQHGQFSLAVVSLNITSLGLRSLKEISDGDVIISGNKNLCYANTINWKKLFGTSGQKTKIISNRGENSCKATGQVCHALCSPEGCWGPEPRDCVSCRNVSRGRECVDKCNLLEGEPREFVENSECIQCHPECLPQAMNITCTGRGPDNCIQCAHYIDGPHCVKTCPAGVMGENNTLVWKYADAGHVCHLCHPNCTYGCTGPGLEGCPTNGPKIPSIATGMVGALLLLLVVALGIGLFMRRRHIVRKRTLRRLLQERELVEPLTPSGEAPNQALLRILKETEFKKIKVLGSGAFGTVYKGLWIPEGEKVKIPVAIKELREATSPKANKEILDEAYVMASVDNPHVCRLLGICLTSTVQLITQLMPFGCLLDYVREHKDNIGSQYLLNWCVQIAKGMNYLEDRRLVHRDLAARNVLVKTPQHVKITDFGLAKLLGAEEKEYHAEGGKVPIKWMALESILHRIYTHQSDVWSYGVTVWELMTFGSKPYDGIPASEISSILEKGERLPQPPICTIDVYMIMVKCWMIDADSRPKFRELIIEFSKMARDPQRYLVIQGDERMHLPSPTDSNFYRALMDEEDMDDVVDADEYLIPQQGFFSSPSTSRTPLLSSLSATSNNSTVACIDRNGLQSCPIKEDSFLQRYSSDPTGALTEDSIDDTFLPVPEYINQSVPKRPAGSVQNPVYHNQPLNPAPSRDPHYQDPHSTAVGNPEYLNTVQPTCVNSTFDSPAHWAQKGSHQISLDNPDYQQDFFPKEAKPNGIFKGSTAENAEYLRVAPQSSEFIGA
readout type: log10 IC50 (log10 of the value in nM)
// stored as log10 of IC50 expressed in nM

Suppose we examine the molecule `COc1ccc(Nc2[nH]nc3ncnc(Nc4cccc(Cl)c4)c23)cc1` ; what log10 IC50 value has been reported?
1.48

Suppose we examine the molecule `Cc1cccc(Nc2ncnc3[nH]nc(Nc4cccc(Cl)c4)c23)c1` ; what log10 IC50 value has been reported?
2.11

Suppose we examine the molecule `Oc1cccc(-c2[nH]nc3ncnc(Nc4cccc(Cl)c4)c23)c1` ; what log10 IC50 value has been reported?
1.41

Suppose we examine the molecule `Clc1cccc(Nc2[nH]cnc3nnc(NCc4ccccc4)c2-3)c1` ; what log10 IC50 value has been reported?
0.85

Suppose we examine the molecule `Nc1ncnc2c1c(-c1ccccc1)nn2-c1ccccc1` ; what log10 IC50 value has been reported?
2.90

Suppose we examine the molecule `Clc1cccc(CNc2[nH]nc3ncnc(Nc4cccc(Cl)c4)c23)c1` ; what log10 IC50 value has been reported?
1.41

* * *

# target or test system: UniProt:P06493
readout type: pIC50
In plain terms, pIC50 is the concentration in mol/L turned into minus its base-10 logarithm.

What value of pIC50 on UniProt:P06493 does `Oc1cccc(-c2[nH]nc3ncnc(Nc4cccc(Cl)c4)c23)c1` have?
6.70

What value of pIC50 on UniProt:P06493 does `Oc1cccc(Nc2[nH]nc3ncnc(Nc4cccc(Cl)c4)c23)c1` have?
5.52

What value of pIC50 on UniProt:P06493 does `Clc1cccc(Nc2[nH]cnc3nnc(-c4ccccc4)c2-3)c1` have?
5.55

What value of pIC50 on UniProt:P06493 does `Nc1cccc(-c2[nH]nc3ncnc(Nc4cccc(Cl)c4)c23)c1` have?
6.17

What value of pIC50 on UniProt:P06493 does `Clc1cccc(Nc2[nH]nc3ncnc(NCc4ccccc4)c23)c1` have?
5.05

What value of pIC50 on UniProt:P06493 does `CC(C)(C)OC(=O)Nc1ccc(Nc2[nH]nc3ncnc(Nc4cccc(Cl)c4)c23)cc1` have?
4.24

What value of pIC50 on UniProt:P06493 does `COc1cc2ncnc(Nc3cccc(Br)c3)c2cc1OC` have?
4.00

* * *

# target or test system: Epidermal growth factor receptor (Homo sapiens)
readout type: pIC50
In plain terms, pIC50 is the concentration in mol/L turned into minus its base-10 logarithm.

Suppose we examine the molecule `Oc1ccc(-c2[nH]nc3ncnc(Nc4cccc(Cl)c4)c23)cc1` ; what pIC50 value has been reported?
8.22

Suppose we examine the molecule `Nc1ncnc2c1cnn2-c1ccccc1` ; what pIC50 value has been reported?
5.57
